Reference source for all entries: patent US11104682B2

A collection of compounds and their measured IC50
Molecular target: Tyro3 (Homo sapiens (Human))
Sequence (Q06418 41-890): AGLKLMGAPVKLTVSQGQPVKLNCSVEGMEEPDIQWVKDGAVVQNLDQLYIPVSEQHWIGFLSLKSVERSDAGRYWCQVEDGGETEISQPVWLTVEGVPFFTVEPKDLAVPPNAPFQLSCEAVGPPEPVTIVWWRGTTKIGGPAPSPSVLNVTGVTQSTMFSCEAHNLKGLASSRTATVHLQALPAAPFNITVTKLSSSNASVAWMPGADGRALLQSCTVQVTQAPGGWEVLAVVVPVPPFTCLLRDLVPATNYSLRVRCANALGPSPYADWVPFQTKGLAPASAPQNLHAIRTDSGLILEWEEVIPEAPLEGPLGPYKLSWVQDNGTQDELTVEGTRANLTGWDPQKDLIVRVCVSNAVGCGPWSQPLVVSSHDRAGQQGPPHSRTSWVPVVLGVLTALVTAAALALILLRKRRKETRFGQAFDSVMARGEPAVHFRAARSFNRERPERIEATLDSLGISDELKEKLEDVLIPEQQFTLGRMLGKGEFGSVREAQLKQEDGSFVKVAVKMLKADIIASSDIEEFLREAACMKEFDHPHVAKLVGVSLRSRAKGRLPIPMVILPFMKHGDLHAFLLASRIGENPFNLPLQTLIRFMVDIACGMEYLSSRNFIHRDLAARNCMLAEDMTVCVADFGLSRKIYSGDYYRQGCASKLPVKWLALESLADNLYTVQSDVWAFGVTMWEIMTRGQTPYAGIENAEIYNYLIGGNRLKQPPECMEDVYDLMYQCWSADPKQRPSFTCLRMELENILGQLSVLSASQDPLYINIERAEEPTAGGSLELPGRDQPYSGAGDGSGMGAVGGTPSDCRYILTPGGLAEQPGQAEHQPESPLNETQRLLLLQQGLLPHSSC
Assay: TAM Enzymatic Assay (HTRF), Tyro3
Format: biochemical
Details: 0.366 nM Tyro3, ATP
Where a name gives a salt, the structure may show the parent alone.
assay-readout: IC50

compound: CC(C)C(=O)N1CCC(c2cc(-c3ccc(NC(=O)c4cn(C(C)C)c(=O)n(-c5ccccn5)c4=O)cc3)c3c(N)ncnn23)CC1 [Compound I maleate salt]
assay-readout: IC50
test-value: 10 to 100 nM
--
compound: CC(C)C(=O)N1CCC(c2cc(-c3ccc(NC(=O)c4cn(C(C)C)c(=O)n(-c5ccccc5)c4=O)cc3)c3c(N)ncnn23)CC1 [Compound II hemi-sulfuric acid salt]
assay-readout: IC50
test-value: 10 to 100 nM

* * *

Test: Solubility of Compound I maleate salt in solvents (saturated solution, HPLC)
Assay type: physicochemical
Conditions: 50 °C, organic solvent or mixture, thermodynamic from solid; solvent Ethyl formate; 50±1° C., 24 hours
Structures can show the parent of a compound that is named as a salt.

compound: CC(C)C(=O)N1CCC(c2cc(-c3ccc(NC(=O)c4cn(C(C)C)c(=O)n(-c5ccccn5)c4=O)cc3)c3c(N)ncnn23)CC1 [Compound I maleate salt]
solubility at 24 h [µg/mL]: 990

* * *

Experiment: Solubility of Compound I maleate salt in solvents (saturated solution, HPLC)
Type: physicochemical
Settings: 25 °C, organic solvent or mixture, thermodynamic from solid; solvent DMSO; 25±1° C., 48 hours
Where a name gives a salt, the structure may show the parent alone.

compound: CC(C)C(=O)N1CCC(c2cc(-c3ccc(NC(=O)c4cn(C(C)C)c(=O)n(-c5ccccn5)c4=O)cc3)c3c(N)ncnn23)CC1 [Compound I maleate salt]
solubility at 48 h: > 50 mg/mL

* * *

Assay: Solubility of Compound I maleate salt in solvents (saturated solution, HPLC)
Assay type: physicochemical
Details: 25 °C, organic solvent or mixture, thermodynamic from solid; solvent IPA; 25±1° C., 48 hours
Structures can show the parent of a compound that is named as a salt.

compound: CC(C)C(=O)N1CCC(c2cc(-c3ccc(NC(=O)c4cn(C(C)C)c(=O)n(-c5ccccn5)c4=O)cc3)c3c(N)ncnn23)CC1 [Compound I maleate salt]
solubility at 48 h (µg/mL): 160

* * *

Experiment: Solubility of Compound I maleate salt in solvents (saturated solution, HPLC)
Assay type: physicochemical
Settings: 50 °C, organic solvent or mixture, thermodynamic from solid; solvent Dichloromethane; 50±1° C., 24 hours
Counter-ions that a name gives are not always drawn.
assay-readout: solubility at 24 h (mg/mL)

compound: CC(C)C(=O)N1CCC(c2cc(-c3ccc(NC(=O)c4cn(C(C)C)c(=O)n(-c5ccccn5)c4=O)cc3)c3c(N)ncnn23)CC1 [Compound I maleate salt]
assay-readout: solubility at 24 h
test-value: 33.7

* * *

Test: Solubility of Compound I maleate salt in solvents (saturated solution, HPLC)
Format: physicochemical
Conditions: 50 °C, organic solvent or mixture, thermodynamic from solid; solvent MIBK; 50±1° C., 24 hours
Where a name gives a salt, the structure may show the parent alone.

compound: CC(C)C(=O)N1CCC(c2cc(-c3ccc(NC(=O)c4cn(C(C)C)c(=O)n(-c5ccccn5)c4=O)cc3)c3c(N)ncnn23)CC1 [Compound I maleate salt]
solubility at 24 h / µg/mL: 740

* * *

Test: Solubility of Compound I maleate salt in solvents (saturated solution, HPLC)
Assay type: physicochemical
Conditions: 25 °C, organic solvent or mixture, thermodynamic from solid; solvent EtOAc; 25±1° C., 48 hours
Counter-ions that a name gives are not always drawn.
assay-readout: solubility at 48 h (µg/mL)

compound: CC(C)C(=O)N1CCC(c2cc(-c3ccc(NC(=O)c4cn(C(C)C)c(=O)n(-c5ccccn5)c4=O)cc3)c3c(N)ncnn23)CC1 [Compound I maleate salt]
readout-units: µg/mL
test-value: 180

* * *

Assay: Solubility of Compound I maleate salt in solvents (saturated solution, HPLC)
Type: physicochemical
Conditions: 25 °C, organic solvent or mixture, thermodynamic from solid; solvent Toluene; 25±1° C., 48 hours
Counter-ions that a name gives are not always drawn.

compound: CC(C)C(=O)N1CCC(c2cc(-c3ccc(NC(=O)c4cn(C(C)C)c(=O)n(-c5ccccn5)c4=O)cc3)c3c(N)ncnn23)CC1 [Compound I maleate salt]
solubility at 48 h (µg/mL): 180

* * *

Assay: Solubility of Compound I maleate salt in solvents (saturated solution, HPLC)
Format: physicochemical
Conditions: 25 °C, organic solvent or mixture, thermodynamic from solid; solvent Acetone; 25±1° C., 48 hours
Counter-ions that a name gives are not always drawn.
assay-readout: solubility at 48 h

compound: CC(C)C(=O)N1CCC(c2cc(-c3ccc(NC(=O)c4cn(C(C)C)c(=O)n(-c5ccccn5)c4=O)cc3)c3c(N)ncnn23)CC1 [Compound I maleate salt]
assay-readout: solubility at 48 h
test-value: 1680 µg/mL

* * *

Test: Solubility of Compound I maleate salt in solvents (saturated solution, HPLC)
Format: physicochemical
Settings: 25 °C, organic solvent or mixture, thermodynamic from solid; solvent THF; 25±1° C., 48 hours
Where a name gives a salt, the structure may show the parent alone.
assay-readout: solubility at 48 h (µg/mL)

compound: CC(C)C(=O)N1CCC(c2cc(-c3ccc(NC(=O)c4cn(C(C)C)c(=O)n(-c5ccccn5)c4=O)cc3)c3c(N)ncnn23)CC1 [Compound I maleate salt]
readout-units: µg/mL
test-value: 920

* * *

Assay: Solubility of Compound I maleate salt in solvents (saturated solution, HPLC)
Format: physicochemical
Details: 50 °C, organic solvent or mixture, thermodynamic from solid; solvent EtOH; 50±1° C., 24 hours
Counter-ions that a name gives are not always drawn.
assay-readout: solubility at 24 h (µg/mL)

compound: CC(C)C(=O)N1CCC(c2cc(-c3ccc(NC(=O)c4cn(C(C)C)c(=O)n(-c5ccccn5)c4=O)cc3)c3c(N)ncnn23)CC1 [Compound I maleate salt]
test-value: 1930

* * *

Test: Solubility of Compound I maleate salt in solvents (saturated solution, HPLC)
Type: physicochemical
Conditions: 25 °C, organic solvent or mixture, thermodynamic from solid; solvent 2% DCM/98% MeOH (V/V); 25±1° C., 48 hours
Structures can show the parent of a compound that is named as a salt.
assay-readout: solubility at 48 h

molecule: CC(C)C(=O)N1CCC(c2cc(-c3ccc(NC(=O)c4cn(C(C)C)c(=O)n(-c5ccccn5)c4=O)cc3)c3c(N)ncnn23)CC1 [Compound I maleate salt]
assay-readout: solubility at 48 h
test-value: 1460 µg/mL

* * *

Assay: Solubility of Compound I maleate salt in solvents (saturated solution, HPLC)
Type: physicochemical
Conditions: 50 °C, organic solvent or mixture, thermodynamic from solid; solvent 1,4-Dioxane; 50±1° C., 24 hours
Structures can show the parent of a compound that is named as a salt.

molecule: CC(C)C(=O)N1CCC(c2cc(-c3ccc(NC(=O)c4cn(C(C)C)c(=O)n(-c5ccccn5)c4=O)cc3)c3c(N)ncnn23)CC1 [Compound I maleate salt]
solubility at 24 h, µg/mL: 4620

* * *

Experiment: Solubility of Compound I maleate salt in solvents (saturated solution, HPLC)
Assay type: physicochemical
Conditions: 25 °C, organic solvent or mixture, thermodynamic from solid; solvent 1-Propanol; 25±1° C., 48 hours
Structures can show the parent of a compound that is named as a salt.
assay-readout: solubility at 48 h (µg/mL)

molecule: CC(C)C(=O)N1CCC(c2cc(-c3ccc(NC(=O)c4cn(C(C)C)c(=O)n(-c5ccccn5)c4=O)cc3)c3c(N)ncnn23)CC1 [Compound I maleate salt]
test-value: 440

* * *

Assay: Solubility of Compound I maleate salt in solvents (saturated solution, HPLC)
Format: physicochemical
Details: 50 °C, organic solvent or mixture, thermodynamic from solid; solvent MeCN; 50±1° C., 24 hours
Structures can show the parent of a compound that is named as a salt.

compound: CC(C)C(=O)N1CCC(c2cc(-c3ccc(NC(=O)c4cn(C(C)C)c(=O)n(-c5ccccn5)c4=O)cc3)c3c(N)ncnn23)CC1 [Compound I maleate salt]
solubility at 24 h: 680 µg/mL

* * *

Assay: Solubility of Compound I maleate salt in solvents (saturated solution, HPLC)
Format: physicochemical
Conditions: 50 °C, organic solvent or mixture, thermodynamic from solid; solvent IPA; 50±1° C., 24 hours
Where a name gives a salt, the structure may show the parent alone.

compound: CC(C)C(=O)N1CCC(c2cc(-c3ccc(NC(=O)c4cn(C(C)C)c(=O)n(-c5ccccn5)c4=O)cc3)c3c(N)ncnn23)CC1 [Compound I maleate salt]
solubility at 24 h (µg/mL): 680

* * *

Assay: Solubility of Compound I maleate salt in solvents (saturated solution, HPLC)
Assay type: physicochemical
Conditions: 50 °C, organic solvent or mixture, thermodynamic from solid; solvent n-BuOH; 50±1° C., 24 hours
Counter-ions that a name gives are not always drawn.

compound: CC(C)C(=O)N1CCC(c2cc(-c3ccc(NC(=O)c4cn(C(C)C)c(=O)n(-c5ccccn5)c4=O)cc3)c3c(N)ncnn23)CC1 [Compound I maleate salt]
solubility at 24 h, µg/mL: 1100
